Assay: Photorelease ability in PBS buffer at pH 7.4 assessed as compound decomposition at 100 uM irradiated with >= 365 nm Hg lamp upto 30 mins by UV absorption spectroscopy
Type: physicochemical
Settings: read-out: Drug degradation
Property: degraded at 0.5 h, 100 µM; scope: individual compounds
Report only the number, with the unit % understood.

[in] Would you mind telling me what degraded at 0.5 h, 100 µM value was observed for CCn1c2ccc(-c3coc(=O)o3)cc2c2cc(-c3coc(=O)o3)ccc21 ?
[out] 100

[in] Param item = CCn1c2ccc(C(=O)C(O)O)cc2c2cc(-c3coc(=O)o3)ccc21 ; retrieve measured degraded at 0.5 h, 100 µM.
[out] 100

====

Entries annotated with measured remaining at 72 h, 100 µM
Experiment: Stability of compound in PBS buffer at pH 7.4 at 100 uM incubated for 72 hrs under dark condition in presence of cysteine by Reverse-phase HPLC analysis
Type: physicochemical
Conditions: read-out: Stability
Numeric answer only, unit % assumed.

Recorded remaining at 72 h, 100 µM, per entry:
• CCn1c2ccc(-c3coc(=O)o3)cc2c2cc(-c3coc(=O)o3)ccc21 = 92
• CCn1c2ccc(C(=O)COC(=O)CCCc3ccc(N(CCCl)CCCl)cc3)cc2c2cc(-c3coc(=O)o3)ccc21 = 93

Now turn to the next compound.
[in] Request the reported remaining at 72 h, 100 µM associated with CCn1c2ccccc2c2cc(-c3coc(=O)o3)ccc21
[out] 87

====

Test: Photorelease ability in PBS buffer at pH 7.4 assessed as compound decomposition at 0.1 mM irradiated with pulsed laser at 730 nm for 30 mins by RP-HPLC analysis
Format: physicochemical
Conditions: read-out: Drug degradation
attributeMeasured: degraded at 0.5 h, 100 µM

[in] Look up degraded at 0.5 h, 100 µM: CCn1c2ccc(-c3coc(=O)o3)cc2c2cc(-c3coc(=O)o3)ccc21
[out] 37%

All figures here come from ChEMBL document CHEMBL5042522.
